assayed-system: T1, Human SIRPαV2 (CAA71403.1), Extracellular Domain + His-Tag (human, UniProt P78324 31-373)
T1 construct: also called huSIRPαV2; hSIRPαV2; not shown: His-Tag
T1 sequence (P78324 other isoform, or with tags, fused parts or gaps): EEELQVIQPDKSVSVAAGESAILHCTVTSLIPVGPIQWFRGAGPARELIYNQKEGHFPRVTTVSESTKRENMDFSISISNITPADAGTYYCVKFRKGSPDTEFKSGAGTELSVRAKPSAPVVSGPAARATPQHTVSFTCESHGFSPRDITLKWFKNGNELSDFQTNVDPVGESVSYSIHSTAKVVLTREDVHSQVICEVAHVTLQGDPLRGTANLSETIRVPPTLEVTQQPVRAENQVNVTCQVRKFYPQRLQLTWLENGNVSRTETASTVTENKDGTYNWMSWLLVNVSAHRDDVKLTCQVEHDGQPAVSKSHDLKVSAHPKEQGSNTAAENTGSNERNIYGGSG
experiment-description: SPR, antibody captured on Protein A/G, ECD-His analyte, 1:1 fit
Quick list: kon per entry.
// units = M⁻¹ s⁻¹; emit number, no label

Antibody E6 (antibody, human IgG1, kappa, L234A L235A, V domains shown) VH: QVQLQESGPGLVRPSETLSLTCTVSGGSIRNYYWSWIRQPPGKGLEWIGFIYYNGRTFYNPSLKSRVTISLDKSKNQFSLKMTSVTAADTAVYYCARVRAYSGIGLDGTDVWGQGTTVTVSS VL: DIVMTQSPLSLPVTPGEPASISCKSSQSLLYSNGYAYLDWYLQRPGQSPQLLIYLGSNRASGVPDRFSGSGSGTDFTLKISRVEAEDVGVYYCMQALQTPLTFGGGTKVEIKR | 429000

# evaluate next
q: Which measured kon value corresponds to Antibody E1 (antibody, human IgG1, kappa, L234A L235A, V domains shown) VH: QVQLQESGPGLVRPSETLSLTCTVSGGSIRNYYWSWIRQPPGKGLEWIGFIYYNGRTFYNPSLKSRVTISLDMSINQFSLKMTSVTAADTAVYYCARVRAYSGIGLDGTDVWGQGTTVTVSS VL: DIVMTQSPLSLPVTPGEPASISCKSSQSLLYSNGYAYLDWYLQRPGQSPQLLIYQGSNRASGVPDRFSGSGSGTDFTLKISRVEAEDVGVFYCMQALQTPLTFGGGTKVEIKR ?
a: 523000
